test: in vitro; design: species or system HB2, CCD841; conditions: human, hek293 cells
# 1 (yes) = viability at 48 h, 10 µM below 60% (exclusive); 0 (no) = viability at 48 h, 10 µM at/above 60%

As a guide, the following entries are already answered.
# compound, label
rows = [
    ("C=CC(=O)NC1CCC(c2nc(C)no2)CC1 (stereo not drawn)", "0 (no)"),
    ("Cc1ccc(CN(C)C(=O)CCl)c(C)c1", "0 (no)"),
    ("O=C(CCl)N1CCN(c2ncc(C(F)(F)F)cc2Cl)CC1", "1 (yes)"),
    ("C#Cc1cccc(NC(=O)NC(=O)CCl)c1", "0 (no)"),
]

Prompt: Is 60% strictly greater than the compound's reported viability at 48 h, 10 µM? compound: CS(=O)(=O)c1ccc(F)c(NC(=O)CCl)c1
Response: 1 (yes)

Prompt: # TODO verify viability at 48 h, 10 µM < 60% strictly for this compound: O=C(CCl)Nc1oncc1-c1ccccc1
Response: 0 (no)

Data origin, for the record: paper PMC6556873
